System: SN12C renal
Assay: NCI-60 one-dose screen, 48 h (100 = growth as untreated, 0 = no growth, -100 = all killed)
Conditions: 10 µM unless noted
About 83,000 compounds went through this panel and 20% of them were active in at least one assay; those are over-represented in the sample as a whole.
observation type: growth (%)
Answer with a number only, understood to be in %.

# `COc1ccc(NC(=O)Nc2ccc(-c3ccc(OC)c(OC)c3)nc2C)cc1` with SN12C renal: growth is 64.4

Given the compound `COc1cc(C(=O)N2CCN(C(=O)c3cc(OC)c(OCc4ccccc4)cc3N)CC2)c(N)cc1OCc1ccccc1` and test system SN12C renal, the measured growth is 111

Readout growth for CC(C)CNCC(O)COc1ccc(C(C)(C)c2ccc(OCC(O)CNCC(C)C)cc2)cc1 (stereo not drawn) , test system SN12C renal, was 67.5

// growth (SN12C renal) for `Cc1ccc[n+](CC(=O)c2cccc3ccccc23)c1` = 102

Reading of growth for `Cc1ccccc1C[P+](c1ccccc1)(c1ccccc1)c1ccccc1` with SN12C renal: 40.5

// growth (SN12C renal) for `COc1ccc(Cn2cc3c(c2-c2cc(OC)c(OC)c(OC)c2)CCc2c(CO)noc2-3)cc1` = 30.3

Log: SN12C renal, compound `Cc1ccc(N(CC2=NCCN2)c2cccc(O)c2)cc1` , growth = 94.6

Form: item `COc1cc(NC(=O)c2cc(OC)c3ccn(C)c3c2)cc2c1C[C@]1(C)CC[C@@H](O)C(C)(C)[C@H]1O2` ; test system SN12C renal; growth: 86.6

###

Give growth for every item shown.
Test system: KM12 colon
Assay: NCI-60 one-dose screen, 48 h (100 = growth as untreated, 0 = no growth, -100 = all killed)
Conditions: 10 µM unless noted
About 83,000 compounds went through this panel and 20% of them were active in at least one assay; those are over-represented in the sample as a whole. Activity calls are given as the source filed them. The calls were made as follows: active = growth percent below 10; inactive = the rest.

response.value for `c1ccc(CNCCN(CCNCc2ccccn2)Cc2ccc3ccccc3c2)nc1` (field: growth) = 12.5% (inactive)

# growth (molecule: `Oc1ccc(O)c(-[n+]2ccccc2)c1` ) is 107% (inactive)

// recorded growth for `O=C(Nc1cccc(-n2ccc3c(NC(=O)c4ccccc4)ncnc32)c1)Nc1ccc(Cl)c(C(F)(F)F)c1` : 12.5% (inactive)

Entry under test: `Nc1nc(-c2cc3c(cc2Cl)NC(=O)/C3=C/c2ccccc2)cs1` . Its growth was 45.5% (inactive)

The value of growth measured for the molecule `COc1ccc(-c2nnc(SCC(=O)N3CCN(c4cc5c(cc4F)c(=O)c(C(=O)O)cn5C4CC4)CC3)o2)cc1OC` turned out to be 99.4% (inactive)

Briefly, growth measured for `CCCCOc1nc2ccc(Cl)cc2cc1/C=C/C(=O)/C=C/c1ccc(Cl)cc1` : 51.6% (inactive)

Short answer for `O=C(Nc1ccc(-n2cc(-c3ccncc3)c(-c3ccc(O)c(Cl)c3)n2)cc1)Nc1cccc(Cl)c1Cl` : growth was 39.1% (inactive)

Form: molecule = CCOC(=O)C1CSC(C)(C(=O)OCC)N1 (configuration not stated) ; growth = 107% (inactive)

Briefly, growth measured for CN1C(=O)C2(NN=C(c3cccc4ccccc34)S2)c2ccccc21 (configuration not stated) : 30.8% (inactive)

Per the records, this molecule ( `COc1cccc(-c2nc3sccn3c2-c2ccnc(NCCNC(=O)Nc3cccc(C(F)(F)F)c3)n2)c1` ) has growth equal to 33.5% (inactive)

Consider CC(C)(C)NCC(O)COc1c(Br)c(Br)c(Br)c2c1OC(C)(C)C2 (configuration not stated) . Its measured growth is -80.7% (active)

Quick note, growth for `O=[N+]([O-])c1cccc(C(c2ccccc2)c2ccccc2)c1` landed at 87% (inactive)

###

For each entry below, report its growth value.
Test system: COLO 205 colon
Experiment: NCI-60 one-dose screen, 48 h (100 = growth as untreated, 0 = no growth, -100 = all killed)
Conditions: 10 µM unless noted
This is part of a sample that, as a whole, favours compounds with a hit. Of some 83,000 tested, about 20% had one in any assay. Active and inactive are the calls of the source. The calls were made as follows: active = growth percent below 10; inactive = the rest.

growth reported for this molecule `O=C(NCCNc1nccc(-c2c(-c3cccc(O)c3)nc3sccn23)n1)c1ccccc1O` : 66.5% (inactive)

The molecule listed as `O=c1[nH]ccc2nc(N3CCC(O)CC3)nc(Nc3cccc(C(F)(F)F)c3)c12` shows growth equal to 35.7% (inactive)

For this molecule ( CCOC(=O)C1=C(N)Oc2cc(OC)ccc2C1c1ccc(F)c(F)c1 (configuration not stated) ), measured growth is 25.2% (inactive)

In plain terms, `COc1ccc(/C=C/C(=O)c2ccc(Oc3ncnc4ccccc34)cc2)cc1OC` has a documented growth of 85.4% (inactive)

Reported growth for `COc1cc(Nc2ncccc2C(=O)Nc2nc3ccc(F)cc3s2)cc(OC)c1OC` was 118% (inactive)

Form: molecule = `COc1ccc(-c2cnc(-c3ccc(F)cc3)[nH]2)cc1` ; growth = 111% (inactive)

The molecule listed as `CCn1cc(C(=O)O)c(=O)c2cc(F)c(N3CCN(CC(=O)Nc4ccc(C(C)=O)cc4)CC3)cc21` shows growth equal to 121% (inactive)

###

Test system: PC-3 prostate
Assay: NCI-60 one-dose screen, 48 h
Conditions: 10 µM unless noted
The panel holds about 83,000 compounds, 20% with a hit somewhere; the sample as a whole holds those more often. Calls of active or inactive are those of the source. Rule for the calls: active = growth percent below 10; inactive = the rest.
Lab note: assign the record to one of class 1 (active), class 0 (inactive)

Which outcome was entered for the compound CCC1S/C(=N\N=C(/C)c2cccs2)N(c2ccccc2)C1=O (stereo not given) in this test? class 0

Write down the call the test reported for this compound. Item: `C=CC(=O)Nc1cccc(Nc2nc(Nc3ccc(OCCOC(F)F)cc3)ncc2F)c1` class 0

Per the records of this test, what outcome belongs to `O=C(Nc1ccc(-n2ccc3c(NC(=O)c4ccccc4)ncnc32)cc1)Nc1cccc(Cl)c1Cl` ? class 1

Outcome logged for `Cc1[nH]n(C(=O)c2ccncc2)c(=O)c1N=Nc1ccc(S(=O)(=O)Nc2ccncn2)cc1` in this assay: class 0

What did the test return for `Cn1c2ccccc2c2ssc(=S)c21` ? class 0

###

Tested on: NCI-H23 lung
Assay: NCI-60 one-dose screen, 48 h (100 = growth as untreated, 0 = no growth, -100 = all killed)
Details: 10 µM unless noted
About 83,000 compounds went through this panel and 20% of them were active in at least one assay; those are over-represented in the sample as a whole.
# Met = growth below 80% (exclusive); Not met = growth at/above 80%

API: query returns whether the molecule falls strictly under 80% in growth. Query: `CC(C)(C)OC(=O)N1CC(Cn2cc(C(F)(F)F)c3c(Cl)ncnc32)C1` Met

In the record for `COc1ccc2c(c1)/C(=C/c1c(-c3cc(OC)c(OC)c(OC)c3Br)nc3sccn13)C(=O)N2` , is growth less than 80%? Not met

Strictly below 80% in growth? `NC(N)=N/N=C/c1ccc([N+](=O)[O-])cc1` Not met

Bench note: check whether `O=C(Nc1ccccc1F)Nc1ccccc1Cl` shows growth below 80% Met

State whether 80% exceeds growth recorded for `Cc1nccc2c3ccc(OCc4cn(Cc5ccc(Br)cc5)nn4)cc3n(CCCc3ccccc3)c12` . Not met

I wonder whether `Cc1cc(NCCN(C(C)C)C(C)C)nc(/N=C(\N)Nc2ccc(Cl)c(C(F)(F)F)c2)n1` has growth below 80%. Can you tell? Met

Given the entry Cc1cn([C@]2(CF)O[C@H](CO)C2C)c(=O)[nH]c1=O (some centres not stated) , would its reported growth be below 80%? Not met

###

System: CAKI-1 renal
Test: NCI-60 one-dose screen, 48 h
Settings: 10 µM
The panel holds about 83,000 compounds, 20% with a hit somewhere; the sample as a whole holds those more often. The source made the active and inactive calls. Rule for the calls: active = growth percent below 10; inactive = the rest.
Assign a class; possible classes are active, inactive

Which outcome did this test record for the compound `O=c1[nH]ccc2nc(N3CCC(O)CC3)nc(Nc3cccc(C(F)(F)F)c3)c12` ? inactive

Record request — test call for `CCCCOc1nc2ccc(Cl)cc2cc1/C=C/C(=O)/C=C/c1ccc(OC)cc1` inactive

Lab log entry: `Cn1cnc([N+](=O)[O-])c1N1c2ccncc2Sc2ccncc21` — outcome as called in the assay? inactive

Could you check what this test reported for `O=C(Nc1cccc(-n2ccc3c(NC(=O)c4ccccc4)nccc32)c1)Nc1ccc(Cl)c(C(F)(F)F)c1` ? active

Test call, this compound: `COc1ccc(-c2nn(-c3cccc(Cl)c3)cc2-c2cc(-c3ccc(Br)cc3)[nH]c(=O)c2C#N)cc1` inactive

Query: recorded result category for `CC(=O)c1cc2c(c(O)c1C)C(=O)C(=O)c1c(O)cccc1-2` in this test active

Could you kindly confirm the outcome this assay logged for `CN[C@@H](CCCNC(N)=NC/C=C(/C)CCC=C(C)C)C(=O)N(C)[C@@H](CCCNC(N)=NCC=C(C)C)C(=O)N[C@H](C)[C@H](OS(=O)(=O)O)c1ccc(OS(=O)(=O)O)c(COS(=O)(=O)O)c1` ? inactive

What did this assay record as the result for `Nc1nccc2c1ccn2-c1ccc(NC(=O)c2ccc(N3CCOCC3)c(C(F)(F)F)c2)cc1` ? active

What did the test return for CC(=O)c1ccc2c(c1)C1C=CCC1[C@H](c1cc3c(cc1Br)OCO3)N2 (some centres not stated) ? inactive

Returns: the outcome recorded for C[C@@H]1CC2C3C[C@H](F)C4=CC(=O)C=C[C@]4(C)[C@@]3(F)[C@@H](O)C[C@]2(C)[C@@]1(O)C(=O)CO (some centres not stated) in this assay. inactive

Tell me the recorded outcome of this test for `CCCCCCCCCCCCCCCC(=O)NS(=O)(=O)OC[C@H]1O[C@@H](n2cnc3c(N)ncnc32)[C@H](O)[C@@H]1O` . active

Each compound tested received a call. Report the one for COCCNC(C(=O)c1ccccc1)c1ccccc1 (configuration not stated) . inactive

// param item: `COc1cc(C(=O)C[n+]2ccccc2)ccc1OC(C)=O` ; yields the recorded call inactive

Given `O=C(Nc1ccc(-n2ccc3c(NC(=O)c4ccccc4)ncnc32)cc1)Nc1ccc(Cl)c(Cl)c1` , state the outcome it received in this test. inactive

Dear all, I need the recorded test outcome for `Cc1cc(O[C@@H]2O[C@@H](C)[C@H](O)[C@@H](O)[C@H]2O)c2c3c(c(O[C@@H]4O[C@@H](C)[C@H](O)[C@@H](O)[C@H]4O)cc2c1)C(=O)c1c(O)cccc1C3=O` , thank you. inactive

Hi, sorry to bother you, what did the test record for OC[C@@H](O)C(O[C@@H]1O[C@H](CO)[C@H](O)[C@H](O)[C@H]1O)[C@H](O)[C@@H](O)CO (some centres not stated) ? inactive

Dear colleague, could you share the recorded outcome for `O=[N+]([O-])c1ccccc1NC1c2ccccc2Oc2ccccc21` when you have a moment? inactive

Which result was noted for this compound in the test: `Cc1cc(NC(=O)c2cccc(C(F)(F)F)c2)ccc1-n1ccc2c(NC(=O)c3ccccc3)nccc21` inactive

How was CC(C)NCC(O)COc1ccc(CC(N)=O)cc1 (configuration not stated) classified in this test? inactive

Per the assay record, what outcome was assigned to COc1cc([C@@H]2c3cc4c(cc3C(OC3O[C@@H]5COC(C)O[C@H]5[C@H](O)[C@H]3O)C3COC(=O)[C@@H]32)OCO4)cc(OC)c1O (some centres not stated) ? active

Per the records of this test, what outcome belongs to `Nc1ncnc2c1ccn2-c1cccc(NC(=O)c2cccc(C(F)(F)F)c2)c1` ? inactive

Given `CCOC(=O)CSc1nnc(-c2cc3c([nH]c4ccccc43)c(-c3cccc(O)c3)n2)n1-c1ccc(C)cc1` , state the outcome it received in this test. inactive

Please share the test call associated with `O=C(NCCNc1nccc(-c2c(-c3cccc(O)c3)nc3sccn23)n1)c1ccccc1` . inactive

Test call for this compound, please: `CN(CCNCc1ccccn1)CCNCc1ccccn1` active

Dear all, I need the recorded test outcome for `CN(C)CCS(=O)(=O)Nc1cc(-c2ccc3ncnc(Nc4ccc(F)c(Cl)c4)c3c2)cnc1Cl` , thank you. active

So what was the verdict on `O=C(Nc1ccc(-n2ccc3c(NC(=O)c4ccccc4)nccc32)cc1)Nc1ccc(Cl)c(Cl)c1` in this test? active

Dear all, I need the recorded test outcome for `O=C(O)c1cccc2oc(-c3ccccc3O)nc12` , thank you. inactive
